Test system: UACC-62
TEST DESCRIPTION: NCI tumour cell line growth inhibition, 48 h
The source made the active and inactive calls. No stated cut-off is given here; in the data, active = GI50 up to about 1.1 µM and inactive = higher.
MEASUREMENT KIND: GI50

These recorded examples may help you get a feel for the data.
MOLECULE: CC(=O)O[C@@H]1C(C2CCCCC2)C=[N+]([O-])O[C@@H]1OC1CCCC1(c1ccccc1)c1ccccc1 (stereo not given in full)
ENDPOINT VALUE: 5.81 µM (inactive)
//
MOLECULE: CC(C)(CC1(C)NC(=O)NC1=O)OCc1ccccc1 (stereo not given)
ENDPOINT VALUE: > 100 µM (inactive)
//
MOLECULE: CCCCNC(=S)OCCC(C)CCCC(C)C (stereo not given)
ENDPOINT VALUE: > 100 µM (inactive)
//
MOLECULE: Nc1cc(Cl)cc2cc(Cl)cnc12
ENDPOINT VALUE: 75.2 µM (inactive)
//
MOLECULE: c1ccc(/C(=N\Nc2nc3ccccc3[nH]2)c2ccccn2)cc1
ENDPOINT VALUE: 0.82 µM (active)

Consider the molecule shown here: N#CCCN(CCCN(C(=O)Nc1ccccc1)c1ccccc1)C(=O)Nc1ccccc1 What is its recorded GI50?
> 100 µM (inactive)

Entry to check: CCC1(O)CC(OC2CC(N(C)C)C(OC3CC(O)C(OC4OC(C)C(=O)C=C4N)C(C)O3)C(C)O2)c2c(cc3c(c2O)C(=O)c2c(O)cccc2C3=O)C1C(=O)OC (stereo not given)
0.0121 µM (active)

Would you kindly repeat that for CC(=O)Nc1ccc(/C=C/C(=O)c2sc(-c3cccnc3)nc2C)cc1 ?
> 100 µM (inactive)

Proceed to COc1ccc(C2Oc3cc(OC)c(O)cc3[C@@H]2C)cc1 (stereo not given in full)
> 10 µM (inactive)

Consider next the molecule O=C1c2c(ccc3c2CCCC3)CC12Cc1ccccc1C2 in the same way.
13.5 µM (inactive)

FYI, the data here is from ChEMBL document CHEMBL1201862.
